Experiment: Conjugation of anti-CD98 mAbs with Bcl-xL inhibitor synthons (precipitation, DAR, recovery, aggregation)
Conditions: conjugation with synthon CZ, Method E
Experimental: Method A. A solution of BOND-BREAKER tris(2-carboxyethyl)phosphine (TCEP) solution (10 mM, 0.017 mL) was added to a solution of antibody (10 mg/mL, […]) preheated to 37° C. The reaction mixture was kept at 37° C. for 1 hour. The solution of reduced antibody was added to a solution of synthon (3.3 mM, 0.160 mL in DMSO) and gently mixed for 30 minutes. […]
property-name: DAR by MS

// sample huAb109: "heavy chain variable sequence of huAb109 is provided in SEQ ID NO: 116"; "light chain variable sequence ... in SEQ ID NO: 117" (antibody, V domains shown) VH: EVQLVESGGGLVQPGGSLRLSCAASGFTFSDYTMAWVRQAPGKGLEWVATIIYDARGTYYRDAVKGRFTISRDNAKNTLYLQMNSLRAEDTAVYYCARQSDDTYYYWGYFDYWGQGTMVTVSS VL: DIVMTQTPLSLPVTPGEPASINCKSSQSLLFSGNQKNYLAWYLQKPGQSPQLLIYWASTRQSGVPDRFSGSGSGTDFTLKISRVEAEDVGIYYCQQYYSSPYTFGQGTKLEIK , its DAR by MS was 2.1
